# tested.target: T1, BANP BEN K278A (human, UniProt Q8N9N5 205-325, K278A)
# T1 sequence: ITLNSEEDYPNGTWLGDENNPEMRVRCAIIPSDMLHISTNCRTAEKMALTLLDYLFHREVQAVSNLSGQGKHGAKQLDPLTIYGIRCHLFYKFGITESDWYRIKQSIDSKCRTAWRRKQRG
# test.description: ITC; ITC: 20 mM Tris pH 7.5, 200 mM NaCl, 2 mM beta-mercaptoethanol, 20 C; EMSA: 20 mM Tris pH 7.0, 200 mM NaCl, 2 mM DTT, 4 C, 1.2% agarose in TAE
# condition.notes: protein: recombinant; tags: His-SUMO or His-MBP, cleaved; chain copies: 2; blunt, self-complementary
pKd: −log10 of the molar value.

# binder, pKd
rows = [
    ("12-CGCG (dsDNA) DNA 1: ATCTCGCGAGAT DNA 2: ATCTCGCGAGAT", 4.45),
]

Sourced from paper PMC11472053
